- Tested on: Rattus norvegicus
- experimentNotes: Antiinflammatory activity in Sprague-Dawley/Wistar rat assessed as decrease in carrageenan-induced hyperalgesia at 20 mg/kg, po administered 4 hrs after carrageenan-challenge measured after 30 mins (reference value: 34.8 +/- 3.0 g)
- Format: functional
# note: exactly 50 g is not below, so it is false (0); use true (1) for Activity strictly under it

Completed entries (count: 2):
{"compoundStructure": "Cc1c(CCOCCCO)cc(-c2ccc(S(C)(=O)=O)cc2)n1-c1ccccc1", "qualitativeLabel": "false (0)"}
{"compoundStructure": "Cc1c(CCOCCCO[N+](=O)[O-])cc(-c2ccc(S(C)(=O)=O)cc2)n1-c1ccccc1", "qualitativeLabel": "false (0)"}

# ---- query compound ----
I wonder whether `Cc1c(CCOCCO)cc(-c2ccc(S(C)(=O)=O)cc2)n1-c1ccccc1` has Activity below 50 g. Can you tell?
false (0)
